test system: CLZ3 (HCA2 human fibroblast dual HR-NHEJ reporter); assay: HR repair efficiency (tdTomato+ cells) relative to control (log10 fold); higher = more homologous recombination; details: 5 µM; doxycycline 0.5 ug/mL;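 also: compound given one day before doxycycline, which switches on I-SceI endonuclease expression to create double-strand breaks within the integrated reporter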
Structures can show the parent of a compound that is named as a salt.
Threshold rule: HR repair efficiency (log10) greater than or equal to 0.06 is fulfilled; below that, not fulfilled.

molecule=CCN1C[C@]2(COC)[C@H](O)C[C@H](OC)[C@]34C1[C@H]([C@H](OC)[C@H]23)[C@@]1(OC(C)=O)C[C@H](OC)[C@@]2(O)C[C@@H]4[C@@H]1[C@H]2OC(=O)c1ccc(OC)cc1 target_desc="CLZ3 (HCA2 human fibroblast dual HR-NHEJ reporter)" category="not fulfilled"
molecule=CC1(C)[C@H]2O[C@H]2[C@H]2[C@](C)(O)[C@@H]3CCC4[C@H](O)[C@@]3(C[C@@H](O)[C@@]21O)C[C@@]4(C)O target_desc="CLZ3 (HCA2 human fibroblast dual HR-NHEJ reporter)" category="not fulfilled"
molecule="C[C@H]1CCC2N(C1)C[C@H]1C3CC4[C@@H](CC(=O)C5C[C@@H](O)CC[C@@]54C)C3CCC1[C@]2(C)O (stereo partly specified)" target_desc="CLZ3 (HCA2 human fibroblast dual HR-NHEJ reporter)" category=fulfilled
molecule=CCN1C[C@]2(COC)[C@H](O)C[C@H](OC)[C@@]34[C@@H]5C[C@@]6(O)[C@H](OC(=O)c7ccccc7)[C@@H]5[C@@](O)([C@@H]([C@H](OC)[C@H]23)[C@@H]14)[C@@H](O)[C@@H]6OC target_desc="CLZ3 (HCA2 human fibroblast dual HR-NHEJ reporter)" category="not fulfilled"
molecule="COC(=O)C1=CCCN(C)C1 [Arecoline Hydrobromide]" target_desc="CLZ3 (HCA2 human fibroblast dual HR-NHEJ reporter)" category=fulfilled
molecule=CC[C@H]1CN2CC[C@@]3(C(=O)Nc4ccccc43)[C@@H]2C[C@@H]1/C(=C\OC)C(=O)OC target_desc="CLZ3 (HCA2 human fibroblast dual HR-NHEJ reporter)" category="not fulfilled"

Reference source: the supplement of paper PMC7380943
